Every entry's value here was drawn from paper PMC11578424.

property: melting point

Worked examples follow.
| compound | reported-result |
| --- | --- |
| CNC(=O)c1ccccc1Nc1nc(N/N=C/c2ccc(OC)cc2F)ncc1Cl [14p] | 218.1 to 219.4 °C |
| CNC(=O)c1ccccc1Nc1nc(N/N=C/c2ccc([N+](=O)[O-])cc2)ncc1Cl [14i] | 201.7 to 202.8 °C |
| CNC(=O)c1ccccc1Nc1nc(N/N=C/c2ccc(O)cc2)ncc1Cl [14d] | 187.8 to 189.2 °C |

q: If you can, please state the reported melting point value of CNC(=O)c1ccccc1Nc1nc(N/N=C/c2cccs2)ncc1Cl [14v] .
a: 214.6 to 216.1 °C

q: Please do the same for CNC(=O)c1ccccc1Nc1nc(N/N=C/c2ccc(OC)cc2)ncc1Cl [14c] as well.
a: 187.7 to 188.9 °C
